# protocol.text: Solubility of fluticasone propionate in FDA-approved solvents and excipients (RP-HPLC at 239 nm)
# Type: physicochemical
# condition.summary: PPG, 25 °C, organic solvent or mixture, thermodynamic from solid, in PPG; overnight at 25 degrees centigrade; read-out: Solubility
experimental.endpoint: solubility
In your response, the unit should come after the numeric value.

What solubility value was documented for this compound, CCC(=O)O[C@]1(C(=O)SCF)[C@H](C)C[C@H]2[C@@H]3C[C@H](F)C4=CC(=O)C=C[C@]4(C)[C@@]3(F)[C@@H](O)C[C@@]21C [fluticasone propionate] ?
2230 µg/mL

* * *

# protocol.text: Solubility of fluticasone propionate in FDA-approved solvents and excipients (RP-HPLC at 239 nm)
# Assay type: physicochemical
# condition.summary: phosphate buffer, 25 °C, pH 7, aqueous buffer, thermodynamic from solid, in Phos buff pH = 7; overnight at 25 degrees centigrade; read-out: Solubility
experimental.endpoint: solubility (µg/mL)
Give the number; µg/mL is assumed, so skip it.

What solubility value was documented for this molecule, CCC(=O)O[C@]1(C(=O)SCF)[C@H](C)C[C@H]2[C@@H]3C[C@H](F)C4=CC(=O)C=C[C@]4(C)[C@@]3(F)[C@@H](O)C[C@@]21C [fluticasone propionate] ?
9.5
